Cited source for all entries: ChEMBL document CHEMBL4689842

Test system: U2OS
assay-procedure: Incucyte cell viability with U2OS; also: filed as whole numbers so only -1 and 0 and 1 occur
Type: toxicity, cell-based
test-context: human, 6 h, 10 µM, compound concentration 10 uM, replicate number 1, timepoint 6 hours
Listing: Growth Rate of selected compounds
// return a plain number; no unit text

[
  {
    "compound": "CN(C)c1ncnc(-c2ccc3nc(Nc4cc(CN5CCN(C(=O)CC(F)(F)F)CC5)ccn4)[nH]c3c2)c1Cl",
    "measured-quantity": "Growth Rate",
    "measured-result": 0
  },
  {
    "compound": "CN(C)S(=O)(=O)c1ccc(NC(=S)N2CCC(C(O)(c3ccccc3)c3ccccc3)CC2)cc1",
    "measured-quantity": "Growth Rate",
    "measured-result": 1
  },
  {
    "compound": "Cn1c(-c2csc(C3CCN(CC4=NC5N=CC=CC5N4)CC3)n2)nc2ccccc21 (stereo not given)",
    "measured-quantity": "Growth Rate",
    "measured-result": 0
  }
]

According to the records, this compound CN(C)C(=O)/C(C#N)=C/c1ccc(-c2nc3cnc4[nH]ccc4c3n2C2CCCCC2)o1 displays Growth Rate of 0

According to the records, this compound COc1ncc(-c2ccc3nccc(-c4ccnnc4)c3c2)cc1NS(=O)(=O)c1ccc(F)cc1F displays Growth Rate of 1

According to the records, this compound Cc1cc(F)c(C(=O)Nc2cccc(-c3nncn3C(C)C)n2)cc1-n1cnc(C2CC2)c1 displays Growth Rate of 0

According to the records, this compound CN(C)C(=O)N[C@H]1CC[C@H](CCN2CCN(c3cccc(Cl)c3Cl)CC2)CC1.Cl [CARIPRAZINE HYDROCHLORIDE] displays Growth Rate of 0

According to the records, this compound Cc1nc(C(=O)N2CCC[C@H]2Cc2nnc(-c3ccccc3)o2)c(-c2ccccc2F)s1 displays Growth Rate of 0

According to the records, this compound O=C(NCCCC1CCCCC1)c1ccc(CNC(=O)c2cnn(-c3ccccc3)c2C(F)(F)F)cc1 displays Growth Rate of 1

According to the records, this compound CCCCN1CCC(COC(=O)c2cc(Cl)c(N)c3c2OCCO3)CC1.Cl displays Growth Rate of 1

According to the records, this compound CC1=C(C#N)C(c2ccc3[nH]nc(C)c3c2)C(C#N)=C(C)N1 displays Growth Rate of 0

According to the records, this compound Cc1nc(C2CCN(C(=O)c3ccc(OC(F)(F)F)cc3N)CC2)c2ncc(N3CCN(C)CC3)cc2n1 displays Growth Rate of 0

According to the records, this compound NC(=O)Nc1cc(-c2cccc(F)c2)sc1C(=O)N[C@H]1CCCNC1 displays Growth Rate of 0

According to the records, this compound COc1cc2c(cc1OCCCN1CCCC1)N=C(N)C21CCC1 displays Growth Rate of 1

According to the records, this compound CCOCCn1cc(C(=O)Nc2ccc(-n3nc(-c4cccnc4)cc3C(F)(F)F)cn2)ccc1=O displays Growth Rate of 0

According to the records, this compound CC(C)C(=O)Nc1n[nH]c2cc(-c3cccc(NS(=O)(=O)C4CC4)c3)ccc12 displays Growth Rate of 0

---

Tested on: HEK-293T
assay-procedure: Multiplex assay against HEK293T
Assay type: toxicity, cell-based
test-context: human, 24 h, 10 µM, compound concentration 10 uM, replicate 1
Listing: Population Normal (%) of selected compounds
Field: numeric (%). Do not append units.

Example compounds with recorded Population Normal (%):
[
  {
    "compound": "Cc1c(-c2ccc(O)cc2)n(Cc2ccc(OCCN3CCCCCC3)cc2)c2ccc(O)cc12",
    "measured-result": 78
  },
  {
    "compound": "CCN(CC)CCCCNc1ncc2cc(-c3cc(OC)cc(OC)c3)c(NC(=O)NC(C)(C)C)nc2n1",
    "measured-result": 63
  }
]

According to the records, this compound CN1CCN(c2ccc(OC(F)(F)F)c(Nc3ncc4c(n3)-c3c(c(C(N)=O)nn3CCO)CC4)c2)CC1 displays Population Normal (%) of 84

According to the records, this compound CN1CCCC(n2nc(Cc3ccc(Cl)cc3)c3ccccc3c2=O)CC1.Cl (stereo not drawn) [AZELASTINE HYDROCHLORIDE] displays Population Normal (%) of 80

According to the records, this compound Cc1nc(-c2ccc(-c3ccc(C(=O)N4CCc5cc6c(cc54)C4(CCN(C)CC4)CO6)cc3)c(C)c2)no1 displays Population Normal (%) of 81

According to the records, this compound CC[C@H](C)C(=O)O[C@H]1C[C@@H](C)C=C2C=C[C@H](C)[C@H](CC[C@@H]3C[C@@H](O)CC(=O)O3)[C@H]21 displays Population Normal (%) of 82

According to the records, this compound CC(C)NCC(O)COc1ccc(CCOCC2CC2)cc1.Cl (stereo not drawn) [BETAXOLOL HYDROCHLORIDE] displays Population Normal (%) of 84

According to the records, this compound COc1cc2nccc(Oc3ccc(NC(=O)Nc4cc(C)on4)c(Cl)c3)c2cc1OC.O displays Population Normal (%) of 85

According to the records, this compound OC1(c2ccc(Cl)cc2)CCN(Cc2c[nH]c3ccccc23)CC1 displays Population Normal (%) of 83

According to the records, this compound C=CC(=O)Nc1cc2c(Nc3ccc(F)c(Cl)c3)ncnc2cc1OCCCN1CCOCC1.Cl.Cl [CANERTINIB DIHYDROCHLORIDE] displays Population Normal (%) of 90

According to the records, this compound C=CC(=O)Nc1cccc(C(=O)Nc2ccc(Nc3cc(-c4[nH]c(SC)nc4C)ccn3)cc2)c1 displays Population Normal (%) of 81

According to the records, this compound Cc1nc(-c2cn3c(n2)-c2ccc(-c4cnn(C(C)(C)C(N)=O)c4)cc2OCC3)n(C(C)C)n1 displays Population Normal (%) of 91

According to the records, this compound CN(C)CC#Cc1ccc(OCCCc2sc(N3CCc4cccc(C(=O)Nc5nc6ccccc6s5)c4C3)nc2C(=O)O)c(F)c1 displays Population Normal (%) of 89

According to the records, this compound Cc1cc(C)cc(-c2cnc3cc(Cl)c(-c4cccc(O)c4)cc3c2OCCCN)c1 displays Population Normal (%) of 87
